Compiled Ki measurements on Adenosine receptor A1 (Homo sapiens) taken from the literature.
Sequence (P30542 whole entry): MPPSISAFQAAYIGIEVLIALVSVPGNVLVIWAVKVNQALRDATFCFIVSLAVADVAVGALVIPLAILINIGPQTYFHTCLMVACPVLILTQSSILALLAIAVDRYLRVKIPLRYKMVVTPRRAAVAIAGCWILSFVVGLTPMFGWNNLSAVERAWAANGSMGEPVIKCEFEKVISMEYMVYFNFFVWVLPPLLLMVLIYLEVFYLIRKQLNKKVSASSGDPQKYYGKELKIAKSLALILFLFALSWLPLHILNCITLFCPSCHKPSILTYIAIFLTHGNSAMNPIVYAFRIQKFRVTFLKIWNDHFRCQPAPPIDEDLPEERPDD
measure_name: Ki (µM)

COc1ccc(-c2nc3c(O)nc4ccc(C)cc4n3n2)cc1: 0.00286
CC1(C)NC(C)(C)c2cc(Nc3ncnc4c3ncn4[C@@H]3O[C@H](CO)[C@@H](O)[C@H]3O)ccc21: 0.29
N#Cc1c(N)nc(SCc2coc(-c3ccc(F)cc3)n2)nc1-c1ccc2c(c1)OCO2: 0.02
Cc1ccc(C(=O)Nc2nc(Cl)c3cn(CC(C)(C)C)nc3n2)cc1: 11.1
COc1ccc(CC(=O)Nc2nc3nn(C)cc3c3nc(-c4ccco4)nn23)cc1: 0.133

1: O=c1c2ncn3nc(-c4ccccc4)cc3c2c(-c2ccccc2)nn1Cc1ccccc1
2: CC(C)Cn1c(=O)c2[nH]c(-c3cnn(Cc4cccc(F)c4)c3)nc2n(CC(C)C)c1=O
3: N#Cc1c(N)nc(-c2ccccc2)nc1-c1ccc2c(c1)OCO2
Order field: Ki | Direction: descending (largest first) Answer with the labels in sequence, matching the requested order. 1, 2, 3
(1: 1.43 µM, 2: 0.83 µM, 3: 0.0049 µM)
